# measured.on: T1, human CD200R1 isoform a on CHOK1 cells (CHOK1/hCD200R1a) (human, UniProt Q8TD46 25-348)
# T1 construct: also called CHOK1/CD200R1a
# T1 sequence: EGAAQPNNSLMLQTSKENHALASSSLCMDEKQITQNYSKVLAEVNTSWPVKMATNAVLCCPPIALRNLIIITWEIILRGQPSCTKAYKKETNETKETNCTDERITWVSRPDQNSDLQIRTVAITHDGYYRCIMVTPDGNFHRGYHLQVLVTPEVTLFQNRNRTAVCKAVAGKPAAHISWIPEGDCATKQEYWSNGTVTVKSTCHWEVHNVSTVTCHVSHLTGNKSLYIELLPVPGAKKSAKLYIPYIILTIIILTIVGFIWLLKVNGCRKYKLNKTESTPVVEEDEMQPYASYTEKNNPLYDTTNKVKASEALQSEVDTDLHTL
# assay.text: flow cytometry blocking assay: antibody titrated against biotin-labelled human CD200 binding to CHOK1/hCD200R1a cells; head prints EC50 without unit, x axis Log [Ab] (nM), y axis Inhibition %
pEC50: −log10 of the molar value.

- binder: "PR007631 (antibody, human IgG1, kappa, V domains shown, PTM variant of PR006839 (human IgG1)) VH: QVQLVESGGGVVQPGRSLRLSCAASGFTFSSYGFHWVRQAPGKGLEWLGLIWSDARHKDYADSVKGRFTISRDNSKNTLYLQMNSLRAEDTAVYYCARDRIVGEGFDYWGQGTLVTVSS VL: DIVMTQSPLSLPVTPGEPASISCRSSQSLLHRSGYNYLDWYLQKPGQSPQLLIYLGSYRWSGVPDRFSGSGSGTDFTLKISRVEAEDVGVYYCMQGLQTMYTFGQGTKLEIKR"
  pEC50: 9.49
- binder: "PR007974 (antibody, human IgG1, kappa, V domains shown, PTM variant of PR006839 (human IgG1)) VH: QVQLVESGGGVVQPGRSLRLSCAASGFTFSYYGFHWVRQAPGKGLEWLGLIWSDARHKDYADSVKGRFTISRDNSKNTLYLQMNSLRAEDTAVYYCARDRIVGEGFDYWGQGTLVTVSS VL: DIVMTQSPLSLPVTPGEPASISCRSSQSLLHRSGYNYLDWYLQKPGQSPQLLIYLGSYRASGVPDRFSGSGSGTDFTLKISRVEAEDVGVYYCQQGIQTTYTFGQGTKLEIKR"
  pEC50: 9.62
- binder: "PR002906 (antibody, V domains shown, also called recombinant IgG1 antibody of huDX182) VH: QVQLQESGPGLVKPSETLSLTCTVSGYTITSGYDWSWIRQPPGKGLEWIGYINYGGSTNYKPSLGSRVTISVDTSKNQFSLKLSSVTAADTAVYYCARYNEYKSYIYDWYFDFWGQGTLVTVSS VL: DIQMTQSPSSLSASVGDRVTITCKASKNIRSYLAWYQQKPGKAPKLLIYSGSTLHSGVPSRFSGSGSGTDFTLTISSLQPEDFATYYCQQHHEYPLTFGQGTKVEIKR"
  pEC50: 9.33
- binder: "PR007630 (antibody, human IgG1, kappa, V domains shown, PTM variant of PR006839 (human IgG1)) VH: QVQLVESGGGVVQPGRSLRLSCAASGFTFSSYGFHWVRQAPGKGLEWLGIIWSDASNKYYADSVKGRFTISRDNSKNTLYLQMNSLRAEDTAVYYCARDRIVGEGFDYWGQGTLVTVSS VL: DIVMTQSPLSLPVTPGEPASISCRSSQSLLHRSGYNYLDWYLQKPGQSPQLLIYLGSYRASGVPDRFSGSGSGTDFTLKISRVEAEDVGVYYCMQGLQTMYTFGQGTKLEIKR"
  pEC50: 9.45
